Molecular target: human nerve growth factor (beta-NGF) (human, UniProt P01138 122-241)
Sequence (P01138 122-241): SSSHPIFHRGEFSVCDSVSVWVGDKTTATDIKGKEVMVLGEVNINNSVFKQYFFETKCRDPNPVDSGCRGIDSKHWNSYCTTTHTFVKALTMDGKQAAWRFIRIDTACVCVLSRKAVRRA
Assay: cell-based or functional assay
observation-type: IC50, PC12 cell survival
// return the numeric value with its unit appended

binder	IC50, PC12 cell survival
1131H2 human IgG4 (antibody, V domains shown) VH: EVQLVQSGAEVKKPGSTVKVSCKASGGTFSTYGISWVRQAPGQGLEWIGGIIPIFDTGNSAQSFQGRVTITADESTSTAYMEVSSLRSDDTAVYYCASSSRIYDLNPSLTAYYDMDVWGQGTMVTVSS VL: QAVLTQPSSVSTPPGQKVTISCSGTSSNIGNNYVSWYQQLPGTAPKLLIYDNNKRPSGIPDRFSGSKSGTSATLGITGLQTGDEADYYCGTWDSSLSAWVFGGGTKLTVL	0.58 nM

Continue with the next binder.
Problem: Any idea what its IC50, PC12 cell survival is? The binder is 1145D1 human IgG4 (antibody, V domains shown) VH: EVQLVQSGAEVKKPGSSVKVSCKASGGTFSTYGISWVRQAPGQGLEWIGGIIPIFDTSNSAQSFQGRVTITADESTSTAYMEVSSLRSDDTAVYYCASSSRIYDFRTLYSTYYDMDVWGQGTMVTVSS VL: QAVLTQPSSVSTPPGQKVTISCSGSSSNIGNNYVSWYQQLPGTAPKLLIYDNNKRPSGISDRFSGSKSGTSATLGIAGLQTGDEADYYCGTWDSSLSAWVFGGGTKLTVL
Solution: 0.66 nM
